# Test system: MOLM-13 cells
# method_notes: Cell viability assay (CellTiter-Glo) in MOLM-13 cells, alone or with gilteritinib
# Assay type: cell-based
# protocol_conditions: Homo sapiens, MOLM-13, 72 h, MOLM-13 cells, compound alone (without gilteritinib), three days, CellTiter-Glo; read-out: MOLM-13 IC50
Listing of recorded IC50 by entry.

molecule: O=C1CCC(N2Cc3c(NC4CCCC(Nc5nccc(N6CCC(n7cc(-c8cnc9ccccc9n8)cn7)CC6)n5)C4)cccc3C2=O)C(=O)N1 (stereo not shown)
IC50: > 1000 nM
--
molecule: O=C1CCC(N2Cc3cc(OCCCN4CCC(n5cc(-c6cnc7ccccc7n6)cn5)CC4)ccc3C2=O)C(=O)N1 (stereo not shown)
IC50: > 1000 nM
--
molecule: Cn1ccc2cnc(-c3cn([C@H]4C[C@H](CNc5ccc6c(c5)C(=O)N(C5CCC(=O)NC5=O)C6=O)C4)nc3C3CC3)cc21 (stereo partly shown)
IC50: 10 to 100 nM
--
molecule: CN(c1ccccc1)C1CN(C(=O)CCCCCNc2ccc3c(c2)C(=O)N(C2CCC(=O)NC2=O)C3=O)C1 (stereo not shown)
IC50: > 1000 nM
--
molecule: O=C1CCC(N2C(=O)c3ccc(NC[C@H]4C[C@H](n5cc(-c6nccc7[nH]ccc67)c(C6CC6)n5)C4)cc3C2=O)C(=O)N1 (stereo partly shown)
IC50: 10 to 100 nM
--
molecule: O=C1CCC(N2Cc3ccc(CCCC(=O)N4CCC(n5cc(-c6ccc7ccccc7n6)cn5)CC4)cc3C2=O)C(=O)N1 (stereo not shown)
IC50: > 1000 nM
--
molecule: O=C(Cc1ccc(N2CCC(n3cc(-c4cnc5ccccc5n4)cn3)CC2)cc1)NCc1ccc2c(c1)CN(C1CCC(=O)NC1=O)C2=O (stereo not shown)
IC50: < 10 nM
